All figures here come from patent US20160229894A1.

# subjectOfTest: TAR RNA
# method: Binding affinity for TAR RNA by fluorescence anisotropy
# Set-up: species or system HIV-1
# settings: fluorescence anisotropy at 20° C., rhodamine-Rev peptide probe
pKd: −log10 of the molar value.
Some sequences, each annotated with its measured pKd.
quantityMeasured: pKd

>>> df
                            primarysequence  quantitymeasured  testvalue
0  LKKLLKLLKKLLKLAG [LK-1, monomeric amphipathic LK peptide]               pKd       7.20
1                   LKKLCKLLKKLCKLAG [LK-2]               pKd       8.02

====

# Tested on: Tat-TAR interaction
# settings: read-out: IC50 (luciferase assay)
pIC50: −log10 of the molar value.
quantityMeasured: pIC50

>>> print(df.to_string())
           primarysequence  quantitymeasured  testvalue
0  LKKLCKLLKKLCKLAG [LK-2]             pIC50       7.30
1  LKKLLKLLKKLLKLAG [LK-1]             pIC50       6.97
